Provenance of the data: patent US5559232A

target: human thrombin (Homo sapiens, UniProt P00734); test: inhibition of the amidolytic activity of thrombin (chromogenic substrate S-2238); assay type: biochemical; details: specificity: Ki trypsin / Ki thrombin
Observed Property: q (ratio of the inhibition of trypsin to the inhibition of thrombin)

In the examples that follow, each entry is paired with its recorded q (ratio of the inhibition of trypsin to the inhibition of thrombin).
[
  {
    "Compound": "CCCCCC(=O)N[C@@H](CC(=O)NC[C@@H]1CCCN(C(=N)N)C1)C(=O)N(CC(=O)O)C1CC1 [Example 14b]",
    "Value Observed": 694
  },
  {
    "Compound": "CCOC(=O)CCN(C(=O)[C@H](CC(=O)NCC1CN(C(=N)N)CCO1)NC(=O)OCc1ccccc1)C1CC1 (stereo partly drawn)",
    "Value Observed": 537
  },
  {
    "Compound": "CCCCS(=O)(=O)N1CCN(CC(=O)O)C(=O)C1CC(=O)NC[C@@H]1CCCN(C(=N)N)C1 (stereo partly drawn)",
    "Value Observed": 74
  },
  {
    "Compound": "N=C(N)N1CCC[C@@H](CNC(=O)C[C@H](NC(=O)NCc2ccccc2)C(=O)N(CC(=O)O)C2CC2)C1",
    "Value Observed": 814
  },
  {
    "Compound": "CCCCN(CC(=O)OCC)C(=O)[C@H](CC(=O)NCC1CN(C(=N)N)CCO1)NC(=O)OCc1ccccc1 (stereo partly drawn)",
    "Value Observed": 5000
  },
  {
    "Compound": "CCOC(=O)CN(C(=O)[C@H](CC(=O)NC[C@@H]1CCCN(C(=N)N)C1)NC(=O)NCc1ccco1)C1CC1",
    "Value Observed": 53
  },
  {
    "Compound": "CCOC(=O)CCN(C(=O)[C@H](CC(=O)NC[C@@H]1CCCN(C(=N)N)C1)NC(=O)OCc1ccccc1)C1CC1",
    "Value Observed": 1706
  },
  {
    "Compound": "CCOC(=O)CN(C(=O)[C@H](CC(=O)NC[C@@H]1CCCN(C(=N)N)C1)NC(=O)Cc1ccccc1)C1CC1 [Example 13e]",
    "Value Observed": 35
  }
]

(A) CCCCN1CC(=O)N[C@@H](CC(=O)NC[C@@H]2CCCN(C(=N)N)C2)C1=O
(B) CC(=O)N[C@@H](Cc1c[nH]c2ccccc12)C(=O)N[C@@H](CC(=O)NC[C@@H]1CCCN(C(=N)N)C1)C(=O)N(CCNC(=O)c1cnccn1)C1CC1 [Example 21c]
Between the two listed entries A and B , which has its q (ratio of the inhibition of trypsin to the inhibition of thrombin) at the higher number? Identify your selection by its label. B
(B: 2459, A: 268)

(I) N=C(N)N1CCOC(CNC(=O)C[C@H](NC(=O)OCc2ccccc2)C(=O)N(CCC(=O)O)C2CC2)C1 (stereo partly drawn)
(II) CCOC(=O)CN(C(=O)[C@H](CC(=O)NC[C@@H]1CCCN(C(=N)N)C1)NC(=O)NCc1ccccc1)C1CC1
Please choose the item with the lower q (ratio of the inhibition of trypsin to the inhibition of thrombin) value from this pair: I and II Answer format: the label of the selected item. II

====

target: trypsin; assay: inhibition of the amidolytic activity of trypsin (chromogenic substrate S-2251); format: biochemical; conditions: substrate S-2251, 200 and 750 μM, otherwise analogous to thrombin
Observed Property: Ki (µM)

(1) N=C(N)N1CCC[C@@H](CNC(=O)C[C@H](NC(=O)OCC2CCCCC2)C(=O)N(CC(=O)O)C2CC2)C1
(2) CCCCN(CC(=O)OCC)C(=O)[C@H](CC(=O)NC[C@@H]1CCCN(C(=N)N)C1)NC(=O)OCc1ccccc1
Lower Ki: 1 or 2 ? Record your answer as the label of the chosen record. 1

(A) CCOC(=O)CN(C(=O)[C@H](CC(=O)NC[C@@H]1CCCN(C(=N)N)C1)NC(=O)OCC1CCCCC1)C1CC1
(B) N=C(N)N1CCC[C@@H](CNC(=O)C[C@H](NC(=O)OCc2ccccc2)C(=O)N(CCC(=O)O)C2CC2)C1
(C) CCCCN(CC(=O)O)C(=O)[C@H](CC(=O)NC[C@@H]1CCCN(C(=N)N)C1)NC(=O)OCc1ccccc1
// sort entries: Ki, high to low When ranking, write the labels in the order the request describes. B, A, C

====

biological target: trypsin; assay: inhibition of the amidolytic activity of trypsin (chromogenic substrate S-2251); format: biochemical; settings: substrate S-2251, 200 and 750 μM, otherwise analogous to thrombin
Observed Property: Ki (µM)

[
  {
    "Compound": "CCCCN1CC(=O)N[C@@H](CC(=O)NC[C@@H]2CCCN(C(=N)N)C2)C1=O",
    "U": "µM",
    "Ki": 590
  },
  {
    "Compound": "N=C(N)N1CCOC(CNC(=O)C[C@H](NC(=O)OCc2ccccc2)C(=O)N(CCC(=O)O)C2CC2)C1 (stereo partly shown)",
    "U": "µM",
    "Ki": 92
  },
  {
    "Compound": "CCCCC(=O)N[C@@H](CC(=O)NC[C@@H]1CCCN(C(=N)N)C1)C(=O)N(CC(=O)O)C1CC1 [Example 14a]",
    "U": "µM",
    "Ki": 64
  }
]

(a) CCOC(=O)CN(C(=O)[C@H](CC(=O)NC[C@@H]1CCCN(C(=N)N)C1)NC(=O)Cc1ccccc1)C1CC1 [Example 13e]
(b) N=C(N)N1CCC[C@@H](CNC(=O)C[C@H](NC(=O)CCc2c[nH]c3ccccc23)C(=O)N(CCNC(=O)c2cnccn2)C2CC2)C1 [Example 21a]
(c) N=C(N)N1CCC[C@@H](CNC(=O)C[C@H](NS(=O)(=O)N2CCOCC2)C(=O)N(CCNC(=O)OCc2ccccc2)C2CC2)C1
(d) N=C(N)N1CCC[C@@H](CNC(=O)C[C@H](NC(=O)OCc2ccccc2)C(=O)N(CC(=O)O)C2CC2)C1
Parameters: sort_field (Ki), sort_dir (desc). Reply with the labels, ordered as the question asks. a, d, c, b
(a: 91 µM, d: 19 µM, c: 13 µM, b: 8.9 µM)

====

target: human thrombin (Homo sapiens, UniProt P00734); assay: inhibition of the amidolytic activity of thrombin (chromogenic substrate S-2238); assay type: biochemical; settings: human thrombin 0.5 nM, substrate S-2238, pH 7.8, room temperature
Observed Property: Ki (µM)

These solved cases illustrate the format of a correct answer.
[
  {
    "Compound": "N=C(N)N1CCC[C@@H](CNC(=O)C[C@H](NC(=O)NCc2ccccc2)C(=O)N(CC(=O)O)C2CC2)C1",
    "U": "µM",
    "Value Observed": 0.043
  },
  {
    "Compound": "CCOC(=O)CN(C(=O)[C@H](CC(=O)NC[C@@H]1CCCN(C(=N)N)C1)NC(=O)OCC1CCCCC1)C1CC1",
    "U": "µM",
    "Value Observed": 2
  },
  {
    "Compound": "CCOC(=O)CN(C(=O)[C@H](CC(=O)NC[C@@H]1CCCN(C(=N)N)C1)NC(=O)Cc1ccccc1)C1CC1 [Example 13e]",
    "U": "µM",
    "Value Observed": 2.6
  },
  {
    "Compound": "CCCCN(CC(=O)O)C(=O)[C@H](CC(=O)NCC1CN(C(=N)N)CCO1)NC(=O)OCc1ccccc1 (some centres unmarked)",
    "U": "µM",
    "Value Observed": 0.0035
  },
  {
    "Compound": "CCOC(=O)CN(C(=O)[C@H](CC(=O)NC[C@@H]1CCCN(C(=N)N)C1)NC(=O)NCc1ccco1)C1CC1",
    "U": "µM",
    "Value Observed": 1.5
  },
  {
    "Compound": "CCOC(=O)CCN(C(=O)[C@H](CC(=O)NC[C@@H]1CCCN(C(=N)N)C1)NC(=O)OCc1ccccc1)C1CC1",
    "U": "µM",
    "Value Observed": 0.017
  },
  {
    "Compound": "N=C(N)N1CCC[C@@H](CNC(=O)C[C@H](NC(=O)CSc2ncccn2)C(=O)N(CCNC(=O)c2cnccn2)C2CC2)C1",
    "U": "µM",
    "Value Observed": 0.00086
  },
  {
    "Compound": "CCCCN(CCC(=O)O)C(=O)[C@H](CC(=O)NCC1CN(C(=N)N)CCO1)NC(=O)OCc1ccccc1 (some centres unmarked)",
    "U": "µM",
    "Value Observed": 0.94
  }
]

(a) CCCCN(CC(=O)OCC)C(=O)[C@H](CC(=O)NC[C@@H]1CCCN(C(=N)N)C1)NC(=O)OCc1ccccc1
(b) N=C(N)N1CCC[C@@H](CNC(=O)C[C@H](NS(=O)(=O)N2CCOCC2)C(=O)N(CCNC(=O)OCc2ccccc2)C2CC2)C1
I'm curious whether a or b has the smaller Ki number. Which is it? Write the label of whichever entry you select. b

(A) CCCCN(CCC(=O)OCC)C(=O)[C@H](CC(=O)NCC1CN(C(=N)N)CCO1)NC(=O)OCc1ccccc1 (some centres unmarked)
(B) N=C(N)N1CCC[C@@H](CNC(=O)C[C@H](NC(=O)OCc2ccccc2)C(=O)N(CC(=O)O)C2CC2)C1
(C) CCCCN(CC(=O)O)C(=O)[C@H](CC(=O)NC[C@@H]1CCCN(C(=N)N)C1)NC(=O)OCc1ccccc1
# rank_down: sort by Ki, max first Put the labels in the order asked and list them. A, C, B

(P) COC(=O)CC[C@H](O)C(=O)N[C@@H](CC(=O)NC[C@@H]1CCCN(C(=N)N)C1)C(=O)N(CCNC(=O)c1cnccn1)C1CC1 [Example 21b]
(Q) CCCCN1CC(=O)N[C@@H](CC(=O)NC[C@@H]2CCCN(C(=N)N)C2)C1=O
Choose between P and Q : whose measured Ki value is numerically larger? Could you answer with the label of the item you picked? Q
(Q: 2.2 µM, P: 0.0072 µM)

(a) N=C(N)N1CCOC(CNC(=O)C[C@H](NC(=O)OCc2ccccc2)C(=O)N(CC(=O)O)C2CC2)C1 (some centres unmarked)
(b) CCOC(=O)CN(C(=O)[C@H](CC(=O)NC[C@@H]1CCCN(C(=N)N)C1)NC(=O)NCc1ccccc1)C1CC1
Which numeric Ki is bigger, that of a or that of b ? I would appreciate it if you answered with the label of your choice. b
